- Tested on: ATP;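 further: ATP exposure 15 min at 22 °C before imaging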
- test_summary: switch fluorescence ratio, 500 uM ATP over buffer (Cy3 cluster intensity, sum of 5 cycles each) (fold (ratio)); higher = stronger signal-on switching upon ATP binding; sequences stand for … in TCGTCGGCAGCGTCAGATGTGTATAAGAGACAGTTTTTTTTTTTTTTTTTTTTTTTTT…TC
- settings: aptamer strand: ATP DNA aptamer (quencher-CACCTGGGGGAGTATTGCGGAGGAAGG + anchor), 100 nM annealed; ATP concentration: 500 uM
readout: switch fluorescence ratio
Answer with the value's number alone.

Here is how some sequences turned out for switch fluorescence ratio.
ATAGGATGGA    1
TGCGATACGG    2.71
TTTTATACCA    1.04
CCCCTGTACT    1.23
GGGTTAGAGG    0.996
GAGATGGGCA    1.01

Quick one: switch fluorescence ratio for ACTTCTCGGT ? 0.992

Quick one: switch fluorescence ratio for GGGGGTAGGG ? 1.03

Quick one: switch fluorescence ratio for CACTCGGAAT ? 1.19

---

- System: ATP;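 further: ATP exposure 15 min at 22 °C before imaging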
- test_summary: switch fluorescence ratio, 500 uM ATP over buffer (Cy3 cluster intensity, sum of 5 cycles each) (fold (ratio)); higher = stronger signal-on switching upon ATP binding; sequences stand for … in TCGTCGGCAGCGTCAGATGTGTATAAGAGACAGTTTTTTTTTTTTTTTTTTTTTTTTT…TC
- settings: aptamer strand: ATP DNA aptamer (quencher-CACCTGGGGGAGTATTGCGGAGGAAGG + anchor), 100 nM annealed; ATP concentration: 500 uM
readout: switch fluorescence ratio
Answer with the value's number alone.

Quick one: switch fluorescence ratio for GGCAACAGCG ? 1.04

---

- Tested on: ATP;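 further: ATP exposure 15 min at 22 °C before imaging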
- test_summary: switch fluorescence ratio, 500 uM ATP over buffer (Cy3 cluster intensity, sum of 5 cycles each) (fold (ratio)); higher = stronger signal-on switching upon ATP binding; sequences stand for … in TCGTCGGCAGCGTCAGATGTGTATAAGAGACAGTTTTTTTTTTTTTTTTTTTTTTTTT…TC
- settings: aptamer strand: ATP DNA aptamer (quencher-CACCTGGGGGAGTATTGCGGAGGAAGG + anchor), 100 nM annealed; ATP concentration: 500 uM
Mark YES for reported switch fluorescence ratio of 1 or greater; mark NO for anything smaller.

ATTGTTCTCC    YES
TATCTATCAT    NO
CTAAAGGGGA    YES

Determine whether this sequence has switch fluorescence ratio no lower than 1: GTCTTGGGTA NO

Determine whether this sequence has switch fluorescence ratio no lower than 1: CTTACTCTTT YES

Determine whether this sequence has switch fluorescence ratio no lower than 1: AAGCGGGGAG YES

---

- Tested on: ATP;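 further: ATP exposure 15 min at 22 °C before imaging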
- test_summary: switch fluorescence ratio, 500 uM ATP over buffer (Cy3 cluster intensity, sum of 5 cycles each) (fold (ratio)); higher = stronger signal-on switching upon ATP binding; sequences stand for … in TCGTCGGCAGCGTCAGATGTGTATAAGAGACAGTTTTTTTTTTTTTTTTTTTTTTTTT…TC
- settings: aptamer strand: ATP DNA aptamer (quencher-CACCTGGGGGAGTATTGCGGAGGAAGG + anchor), 100 nM annealed; ATP concentration: 500 uM
The entries below come with measured switch fluorescence ratio values attached.
Answer with the value's number alone.

Here is how some sequences turned out for switch fluorescence ratio.
ATATCCGGGA    1.03
CACTAGTTTT    1.01
TATCGGGGTT    0.98
GGGTAGAAAG    0.97
GTGGGCCTTT    0.987
TTTGACAGCC    1.06
TGGTGTAAGT    1.01
TTAAGATGGG    0.996
GGTATAATTT    1.04
TTCTGAACGT    1

Quick one: switch fluorescence ratio for GTTTAAAGGG ? 0.998

Quick one: switch fluorescence ratio for AAATGGCACG ? 0.973

Quick one: switch fluorescence ratio for TTCCGTTAGA ? 1.06

Quick one: switch fluorescence ratio for ATGTGCAATA ? 1.94

Quick one: switch fluorescence ratio for TGGGATTTGA ? 0.993
